Tested on: Candida albicans; also: assay method not described here
Conditions: 32 ug/mL
Description: Antifungal activity against Candida albicans ATCC 90028 (CO-ADD:FG_001); MIC in YNB media using NBS plates, by OD630
Results with a measured potency or affinity are listed apart.
PARAMETER_MEASURED: Inhibition (%)
One number for each entry, in %.

| COMPOUND | MEASUREMENT_UNIT | REPORTED |
| --- | --- | --- |
| N#CC1=C(N)Oc2ccc3ccccc3c2C1c1ccccc1[N+](=O)[O-] (stereo not drawn) | % | 2.32 |
| Nc1c2c(nc3c1C(c1c(Cl)cccc1Cl)c1ccc4ccccc4c1O3)CCCC2 (stereo not drawn) | % | -1.13 |

# per-item lookup of Inhibition; items listed below
1. O=C(Cc1c[nH]c2ccccc12)NN=C1CCCCCC1
2. O=C1SC(SCc2ccccc2)=NC1=Cc1ccc2c(c1)OCO2

1.07
1.96

Provide Inhibition values for the following items, in order.
1. Nc1c2c(nc3c1C(c1ccc([N+](=O)[O-])cc1)c1ccc4ccccc4c1O3)CCCC2 (stereo not drawn)
2. CCCC(C)NNC(=O)c1cc2ccccc2[nH]1 (stereo not drawn)

[-1.86, 0.67]

Hello, I would appreciate it if you could give Inhibition for each entry below.
1. N#Cc1c(Cl)nc(Sc2ccccc2)c(C#N)c1-c1ccccc1
2. N#Cc1c(N)nc(N2CCOCC2)c(C#N)c1-c1ccccc1
3. N#CC1=C(Cl)Oc2c(ccc3ccccc23)C1c1ccccc1 (stereo not drawn)
4. N#CC1(Br)C(=NBr)Oc2ccc3ccccc3c2C1c1ccc([N+](=O)[O-])cc1 (stereo not drawn)
5. N#Cc1cc(C#N)c(N2CCC(Cc3ccccc3)CC2)nc1N

2.71
1.23
4.15
2.19
1.71

---

Assignment: determine reported Inhibition for the given compounds.
Test system: Candida albicans; also: assay method not described here
Conditions: 32 ug/mL
Potency and affinity values are given separately.
Please report the result as a number followed by the unit.

Example entries and their recorded answers appear below.
| COMPOUND | TARGET_OR_TEST_SYSTEM | Inhibition |
| --- | --- | --- |
| Cn1cc(C=O)c2ccccc21 | Candida albicans | 1.53% |
| CC1(C)OC(=O)C(=Cc2ccc([N+](=O)[O-])cc2)C(=O)O1 | Candida albicans | 1.46% |
| CCOc1nc(N)c(C#N)cc1C#N | Candida albicans | 44.3% |
| CC#CCN(Cc1ccccc1)c1nc(N)c(C#N)c(-c2ccccc2)c1C#N | Candida albicans | 3.12% |
| N#CC1=C(N)Oc2c(ccc3ccccc23)C1c1cccc([N+](=O)[O-])c1 (centres undefined) | Candida albicans | 2.35% |
| OCc1cc2ccccc2[nH]1 | Candida albicans | 2.35% |
| N#Cc1cc(C#N)c(NCc2ccccc2)nc1N | Candida albicans | 1.7% |
| N#Cc1cc(Br)cc(Br)c1N | Candida albicans | 4.77% |
| COc1ccc(C2c3c(ccc4ccccc34)OC(=N)C2(Br)C#N)cc1 (centres undefined) | Candida albicans | 17.9% |
| Cc1ccc2nc(Cl)c(/C=N/C(C)(C)C)cc2c1 | Candida albicans | 7.21% |

Below are 8 compounds. Give each one its Inhibition.
1. O=C(N/N=C/c1ccc(Cl)cc1)c1cc2ccccc2[nH]1
2. COc1cccc(-c2c(C#N)c(=O)oc3c2ccc2ccccc23)c1
3. CNC(=O)c1cc2cc(OCc3ccccc3)ccc2n1C
4. C#CCNC(=O)c1cc2cc(OCCCC3CCN(Cc4ccccc4)CC3)ccc2[nH]1
5. Cn1c(C(=O)N2CCOCC2)cc2cc(OCCCC3CCN(Cc4ccccc4)CC3)ccc21
6. COc1ccc(C2c3c(nc4c(c3N)CCCC4)Oc3ccc4ccccc4c32)cc1OC (centres undefined)
7. CN1C/C(=C\Cl)n2c1c(C#N)c(-c1ccccc1)c(C#N)c2=O
8. N#CC1=C(Cl)Oc2ccc3ccccc3c2C1c1ccccc1 (centres undefined)

1. 3.28%
2. 24.3%
3. 3.06%
4. 1.71%
5. 1.38%
6. 2.65%
7. 3.56%
8. 2.47%

Each compound below has a reported value. Please supply its Inhibition.
1. N#CC1(Br)C(=NBr)Oc2c(ccc3ccccc23)C1c1ccc([N+](=O)[O-])cc1 (centres undefined)
2. Cl.N#Cc1c(N)nc(NCCO)c(C#N)c1-c1ccccc1
3. NNC(=O)Cc1c[nH]c2ccccc12
4. O=C1NC(=S)N/C1=C\c1c[nH]c2ccccc12

25.9%
1.4%
3.51%
-0.31%
